CONDITION SET: in acetone, 288.25 K
ENDPOINT NAME: solubility (mole fraction)
Form rule: numeric answer, no unit written next to it.

Challenge: Given the compound O=P1(C(Nc2ccccc2)c2ccccc2)OCC2(CO1)COP(=O)(C(Nc1ccccc1)c1ccccc1)OC2 (stereo unspecified) , write its reported solubility (mole fraction).
Response given: 0.000101

====

CONDITION SET: in THF, 328.35 K
ENDPOINT NAME: solubility (mole fraction)
Form rule: numeric answer, no unit written next to it.

Challenge: Given the compound O=P1(C(Nc2ccccc2)c2ccccc2)OCC2(CO1)COP(=O)(C(Nc1ccccc1)c1ccccc1)OC2 (stereo unspecified) , write its reported solubility (mole fraction).
Response given: 0.00862

====

CONDITION SET: in isopropanol, 333.3 K
ENDPOINT NAME: solubility (mole fraction)

Challenge: Given the molecule O=P1(C(Nc2ccccc2)c2ccccc2)OCC2(CO1)COP(=O)(C(Nc1ccccc1)c1ccccc1)OC2 (stereo unspecified) , write its reported solubility (mole fraction).
Response given: 0.000393

====

CONDITION SET: in acetonitrile, 323.55 K
ENDPOINT NAME: solubility (mole fraction)
Form rule: numeric answer, no unit written next to it.

Challenge: Given the compound O=P1(C(Nc2ccccc2)c2ccccc2)OCC2(CO1)COP(=O)(C(Nc1ccccc1)c1ccccc1)OC2 (stereo unspecified) , write its reported solubility (mole fraction).
Response given: 0.000121

====

CONDITION SET: in ethanol, 303.25 K
ENDPOINT NAME: solubility (mole fraction)
Form rule: numeric answer, no unit written next to it.

Challenge: Given the compound O=P1(C(Nc2ccccc2)c2ccccc2)OCC2(CO1)COP(=O)(C(Nc1ccccc1)c1ccccc1)OC2 (stereo unspecified) , write its reported solubility (mole fraction).
Response given: 7.4e-05

====

CONDITION SET: in dichloromethane, 293.35 K
ENDPOINT NAME: solubility (mole fraction)
Form rule: numeric answer, no unit written next to it.

Challenge: Given the compound O=P1(C(Nc2ccccc2)c2ccccc2)OCC2(CO1)COP(=O)(C(Nc1ccccc1)c1ccccc1)OC2 (stereo unspecified) , write its reported solubility (mole fraction).
Response given: 0.000268

====

CONDITION SET: in acetonitrile, 317.95 K
ENDPOINT NAME: solubility (mole fraction)
Form rule: numeric answer, no unit written next to it.

Challenge: Given the compound O=P1(C(Nc2ccccc2)c2ccccc2)OCC2(CO1)COP(=O)(C(Nc1ccccc1)c1ccccc1)OC2 (stereo unspecified) , write its reported solubility (mole fraction).
Response given: 9.8e-05

====

CONDITION SET: in 1,2-dichloroethane, 333.35 K
ENDPOINT NAME: solubility (mole fraction)
Form rule: numeric answer, no unit written next to it.

Challenge: Given the compound O=P1(C(Nc2ccccc2)c2ccccc2)OCC2(CO1)COP(=O)(C(Nc1ccccc1)c1ccccc1)OC2 (stereo unspecified) , write its reported solubility (mole fraction).
Response given: 0.000249

====

CONDITION SET: in 1,4-dioxane, 283.15 K
ENDPOINT NAME: solubility (mole fraction)
Form rule: numeric answer, no unit written next to it.

Challenge: Given the compound O=P1(C(Nc2ccccc2)c2ccccc2)OCC2(CO1)COP(=O)(C(Nc1ccccc1)c1ccccc1)OC2 (stereo unspecified) , write its reported solubility (mole fraction).
Response given: 7.3e-05

====

CONDITION SET: in isopropanol, 313.25 K
ENDPOINT NAME: solubility (mole fraction)
Form rule: numeric answer, no unit written next to it.

Challenge: Given the compound O=P1(C(Nc2ccccc2)c2ccccc2)OCC2(CO1)COP(=O)(C(Nc1ccccc1)c1ccccc1)OC2 (stereo unspecified) , write its reported solubility (mole fraction).
Response given: 0.000256
